# credit: ChEMBL document CHEMBL1142333

# reported log10 CC50; entries follow
Assay: Cytotoxicity against mock-infected human MT4 cells by MTT assay
Type: cell-based
Parameter value (number): base-10 log of CC50 in µM.

>  <CPD SMILES>
COc1noc2c(C)cc(/C(=C\CCc3nnc(C)o3)c3cccc(C#N)c3)cc12

>  <log10 CC50>
-0.70

$$$$

Return reported log10 CC50; argument: Cc1nnc(CC/C=C(/c2cccc(C#N)c2)c2cc(C)c3on(C)c(=O)c3c2)o1
-0.01

Next up: COc1noc2c(C)cc(/C(=C\CCc3nnc(C)o3)c3ccc(C#N)cc3)cc12
-0.47

Next up: CO/N=C(\Cl)CCC/C=C(\c1cc(C)c(OC)c(/C(Cl)=N/OC)c1)c1cc(C)c2oc(=O)n(C)c2c1
1.08

Next up: COc1noc2c(C)cc(/C(=C/CCc3nnc(C)o3)c3cccc(C#N)c3)cc12
0.62

Next up: C=CCCCC=C(c1cc(Br)c(OC)c(C(=O)OC)c1)c1cc(Br)c(OC)c(C(=O)OC)c1
1.79

Next up: COC(=O)c1cc(C(=CCCc2nnc(C)o2)c2cc(C)c(OC)c(C(=O)OC)c2)cc(C)c1OC
1.56

----------
System: Human immunodeficiency virus 1
Experiment: Antiviral activity against HIV13B infected in human MT4 cells
Format: functional, organism-based
Settings: Human immunodeficiency virus 1, 3B
# reported pEC50; entries follow
In plain terms, pEC50 is the concentration in mol/L turned into minus its base-10 logarithm.

>  <COMPOUND>
CO/N=C(\Cl)CCC/C=C(\c1cc(C)c(OC)c(/C(Cl)=N/OC)c1)c1cc(C)c2oc(=O)n(C)c2c1

>  <TARGET ENTITY>
Human immunodeficiency virus 1

>  <MEASURED PROPERTY>
pEC50

>  <REPORTED>
5.92

$$$$
>  <COMPOUND>
Cc1ccnc2c1NC(=O)c1cccnc1N2C1CC1 [NEVIRAPINE]

>  <TARGET ENTITY>
Human immunodeficiency virus 1

>  <MEASURED PROPERTY>
pEC50

>  <REPORTED>
7.28

$$$$

Shift focus to the following entry.
Return reported pEC50; argument: COC(=O)c1cc(C(=CCCc2nnc(C)o2)c2cc(C)c(OC)c(C(=O)OC)c2)cc(C)c1OC
5.49

----------
Experiment: Cytotoxicity against human mock-infected CEM-SS cells by MTT assay
# reported CC50; entries follow

Recorded CC50, per entry:
>  <CPD SMILES>
Cc1nnc(CC/C=C(/c2cccc(C#N)c2)c2cc(C)c3on(C)c(=O)c3c2)o1

>  <CC50>
1100 nM

$$$$
>  <CPD SMILES>
COc1noc2c(C)cc(/C(=C\CCc3nnc(C)o3)c3ccc(C#N)cc3)cc12

>  <CC50>
4 nM

$$$$
>  <CPD SMILES>
C=CCCCC=C(c1cc(Br)c(OC)c(C(=O)OC)c1)c1cc(Br)c(OC)c(C(=O)OC)c1

>  <CC50>
> 100000 nM

$$$$
>  <CPD SMILES>
CCCCCC=C(c1cc(Cl)c(OC)c(C(=O)OC)c1)c1cc(Cl)c(OC)c(C(=O)OC)c1

>  <CC50>
29000 nM

$$$$

Shift focus to the following entry.
Return reported CC50; argument: COC(=O)c1cc(C(=CCCCSC)c2cc(Cl)c(OC)c(C(=O)OC)c2)cc(Cl)c1OC
20000 nM

----------
This document collects pIC50 values reported for Human immunodeficiency virus type 1 reverse transcriptase (Human immunodeficiency virus 1).
In plain terms, pIC50 is the concentration in mol/L turned into minus its base-10 logarithm.

Return reported pIC50; argument: COc1noc2c(C)cc(/C(=C/CCc3nnc(C)o3)c3cccc(C#N)c3)cc12
4.14

Next up: COC(=O)c1cc(C(=CCCCSC)c2cc(Cl)c(OC)c(C(=O)OC)c2)cc(Cl)c1OC
4.00

Next up: COc1noc2c(C)cc(/C(=C\CCc3nnc(C)o3)c3cccc(C#N)c3)cc12
4.03

Next up: Cc1nnc(CC/C=C(/c2cccc(C#N)c2)c2cc(C)c3on(C)c(=O)c3c2)o1
4.40

----------
Test: Cytotoxicity against human mock-infected CEM-SS cells by MTT assay
# reported CC50; entries follow
Give the number; nM is assumed, so skip it.

>  <CPD SMILES>
COc1noc2c(C)cc(/C(=C\CCc3nnc(C)o3)c3cccc(C#N)c3)cc12

>  <UNIT OF MEASURE>
nM

>  <CC50>
4

$$$$
>  <CPD SMILES>
CO/N=C(\Cl)CCC/C=C(\c1cc(C)c(OC)c(/C(Cl)=N/OC)c1)c1cc(C)c2oc(=O)n(C)c2c1

>  <UNIT OF MEASURE>
nM

>  <CC50>
2900

$$$$

Shift focus to the following entry.
Return reported CC50; argument: COc1noc2c(C)cc(/C(=C/CCc3nnc(C)o3)c3cccc(C#N)c3)cc12
2100
